Test system: DLD1
MEASUREMENT_PROTOCOL: cell viability (CellTiter-Glo) relative to plate median (fraction of plate median); higher = more viable cells
CONDITION_NOTES: 5 µM; treatment time 24 h; reporter: 7TFP
READOUT_TYPE: cell viability

Please review the entries below; each comes with its answer.
Measured cell viability, COc1cc(C)cc2ccc(-c3ccc4c(c3O)[C@@H](C)N[C@H](C)C4)c(O)c12 : 1.17

Measured cell viability, C/C=C/c1ccc(OC)cc1 : 1.07

---
Measured cell viability, CNCCc1ccccn1 : 0.835

Measured cell viability, C=C1C(N)CC2CC1C2(C)C (stereo unspecified) : 0.974

Measured cell viability, CC1(C)S[C@@H]2[C@H](NC(=O)[C@H](C(=O)O)c3ccsc3)C(=O)N2[C@H]1C(=O)O : 1.09

Measured cell viability, C[C@]12C=CC(=O)C=C1CC[C@@H]1[C@@H]2C(=O)C[C@@]2(C)[C@H]1CC[C@]2(O)C(=O)CO : 1

Measured cell viability, Cc1cc(O)c2c(c1)C(=O)c1cccc(O)c1C2=O : 0.921

Measured cell viability, CCCCNS(=O)(=O)c1ccccc1 [N-butylbenzenesulphonamide (AB2)] : 0.978

Measured cell viability, COC1=CC(=O)C(O)=C/C1=C\C=C\c1ccccc1 : 1

Measured cell viability, CCCCC(=O)N(Cc1ccc(-c2ccccc2-c2nnn[nH]2)cc1)[C@H](C(=O)O)C(C)C : 0.908

Measured cell viability, Oc1cccc2nc3c(O)cccc3nc12 : 1.12

Measured cell viability, O=C(NOC[C@H](O)CO)c1ccc(F)c(F)c1Nc1ccc(I)cc1F : 1.1

Measured cell viability, COc1ccc(-c2cc(=O)c3ccccc3o2)cc1 : 1

Measured cell viability, Cc1c(C)c2c(c(C)c1O)CCC(C)(CCCC(C)CCCC(C)CCCC(C)C)O2 (stereo unspecified) : 0.963

Measured cell viability, CC(=O)O[C@H]1C[C@@H](OC(C)=O)C(C)(C)C2C[C@@H](O)[C@]3(C)C(CC[C@@]4(C)[C@H](c5ccoc5)OC(=O)[C@H]5O[C@]543)[C@]21C (stereo partly specified) : 1.04

Measured cell viability, CC(=O)Oc1ccc(C(c2ccc(OC(C)=O)cc2)c2ccccn2)cc1 : 0.806

Measured cell viability, CN/C(=N\CCSCc1nc[nH]c1C)NC#N : 1.04

Measured cell viability, CC(CCC(=O)O)[C@H]1CCC2C3C[C@H](O)[C@@H]4C[C@H](O)CC[C@]4(C)C3CC[C@@]21C (stereo partly drawn) [alpha-HYDROXYDEOXYCHOLIC ACID] : 1.04

Measured cell viability, CCC(Cc1c(I)cc(I)c(N)c1I)C(=O)O (stereo unspecified) : 1.08

Measured cell viability, CCCNC(=O)NS(=O)(=O)c1ccc(Cl)cc1 : 1.03

Measured cell viability, c1ccc(CC2=NCCN2)cc1 : 0.994
